Items are presented alongside their recorded log10 IC50.
- assay.system: Sirt5 (Homo sapiens)
- Sequence (Q9NXA8 37-310): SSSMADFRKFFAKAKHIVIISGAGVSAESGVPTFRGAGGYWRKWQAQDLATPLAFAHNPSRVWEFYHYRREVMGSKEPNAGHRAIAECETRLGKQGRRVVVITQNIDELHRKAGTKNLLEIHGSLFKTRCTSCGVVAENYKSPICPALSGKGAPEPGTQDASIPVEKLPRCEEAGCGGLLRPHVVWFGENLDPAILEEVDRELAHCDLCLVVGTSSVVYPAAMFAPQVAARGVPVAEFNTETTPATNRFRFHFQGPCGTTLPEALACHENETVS
- assay.explanation: sirtuin inhibition IC50, Sirt5-catalyzed desuccinylation
- Format: biochemical
- measurement.context: Table 2; NI = no inhibition
Units before log transform: µM; reported quantity: IC50; transform: log10.

O=C(O)CCNC(=S)NCCCCC(NC(=O)OCc1ccccc1)C(=O)Nc1ccccc1O (centres unmarked) [YC6-07]
0.28

Retrieve log10 IC50 measured for CC(C)(C)OC(=O)NC(CCCCNC(=S)NCCC(=O)O)C(=O)Nc1cccc(O)c1 (centres unmarked) [YC6-09] and print it. 0.64

Determine its reported log10 IC50: CC(=O)NC(CCCCNC(=S)NCCC(=O)O)C(=O)Nc1cccc(O)c1 (centres unmarked) [YC6-17] 1.13

Determine from records and report log10 IC50 for O=C(O)CCNC(=S)NCCCCC(NC(=O)OCc1ccccc1)C(=O)Nc1ccc(O)cc1 (centres unmarked) [YC6-04] 0.52

Entry O=C(O)CCNC(=S)NCCCCC(NC(=O)OCc1ccccc1)C(=O)Nc1cccc(O)c1 (centres unmarked) [Compound I5-2] needs its log10 IC50 filled in; supply it. -0.05
